Tested on: SW-620 colon
Test Summary: NCI-60 one-dose screen, 48 h
Settings: 10 µM unless noted
Compounds without any hit were thinned out: in the full panel of roughly 83,000, 20% have a hit. Active and inactive are the calls of the source. The calls were made as follows: active = growth percent below 10; inactive = the rest.
Choose one outcome from this list and give only that: 1 (active), -1 (inactive)

{"Compound": "CCCCCCCCCCCCCCCCCCOc1ccccc1CC(=O)NCC[N+](C)(C)C", "Group Label": -1}

Entry `CCOC(=O)c1c(NC(=O)c2ccccc2)sc2c3c(ccc12)OCN(C)C3` : call = ?
1

Same again, this time with `O=C(OCc1ccc2c(Cl)cc(Cl)c(O)c2n1)N1CCN(C(=O)c2cc3ccccc3[nH]2)CC1`
-1

Same again, this time with CCCC(=O)NC(c1ccc2c(c1)OCO2)c1cc(Cl)c2cccnc2c1O (stereo not drawn)
-1
